system: DU-145 prostate; test: NCI tumour cell line growth inhibition, 48 h
Consider the following compounds; for each one, report its TGI.

Example results:
Compound	TGI
O=[N+]([O-])c1ccc(N/N=C/c2ccc(OCCCCCCCCCCCO)cc2)c([N+](=O)[O-])c1	> 95.9 µM
O=C1C(Cl)=C(NCc2ccco2)C(=O)c2ccccc21	6.27 µM
CC1(C)OCC=CCO1	> 100 µM
COc1ccc(C(=O)/C=C/c2cc(O)c(O)c(F)c2F)c(OC)c1	> 100 µM
N[C@H]1CCCC[C@@H]1N1C(=O)c2ccccc2C1(O)c1ccc(Cl)cc1 (stereo not given in full)	25.9 µM
C=C1CCC([N+](=O)[O-])[C@](C)(N=O)CC[C@@H]2C1CC2(C)C (stereo not given in full)	> 100 µM
COc1cc(/C=C/C(=O)C2(C(=O)/C=C/c3cc(OC)c(OC)c(OC)c3)CCCCC2)cc(OC)c1OC	> 100 µM
Cc1cc(S(=O)(=O)Nc2nc3ccccc3c(=O)n2N)c(S)cc1Cl	> 100 µM

Quick one: give me TGI for each item below, same order please.
1. N#C/C(N)=C(\C#N)NC(=O)C(=O)N/C(C#N)=C(\N)C#N
2. Cc1ccc(S(=O)(=O)NNCNC(=O)c2ccccc2)cc1
3. COc1ccc2nc(-c3ccc(O)cc3)sc2c1
4. C[C@@H]1CC[C@@H]2[C@@H](C1)O[C@@H]([C@H](C)OCc1ccccc1)SC2(C)C
5. Oc1ccc(-c2nc3ccc(Cl)cc3s2)cc1

Reply:
1: > 100 µM; 2: > 100 µM; 3: > 100 µM; 4: > 100 µM; 5: 31.1 µM

---

Give TGI for every item shown.
test system: IGROV1 ovarian; assay: NCI tumour cell line growth inhibition, 48 h

Record TGI for all entries; do not skip any.
1. Cc1cccc(NC(=O)c2cccc([N+](=O)[O-])c2O)c1C
2. COC(=O)CC[C@H](Cc1ccccc1)NC(=O)c1csc([C@@H](C[C@H](C(C)C)N(C)C(=O)[C@@H](NC(=O)[C@H]2CCCCN2C)C(C)C)OC(C)=O)n1
3. Cc1cn(CC2=NCC(C)N2)c(=O)[nH]c1=O (stereo not given)

Reply:
1: > 100 µM; 2: > 25 µM; 3: > 100 µM

For each entry beneath this line, provide reported TGI.
1. N#Cc1ccc(-n2c3ccccc3c3ccc4c(c32)C(=O)C=CC4=O)cc1
2. Cc1cnc(C(=O)NNc2nc3sc4c(c3c(=O)n2C)C(C)CCC4)cn1 (stereo not given)
3. CC(C)CC(NC(=O)OC(C)(C)C)C(=O)Nc1ccc(Nc2nc(F)nc(-c3c4ccccc4cn3C)n2)cc1 (stereo not given)
4. NC(N)=NS(=O)(=O)c1ccc(Nc2c3ccccc3nc3c(C(=O)Nc4ccc(S(N)(=O)=O)cc4)cccc23)cc1
5. C/C(=N\NC(=S)NCCCNC(=S)N/N=C(\C)c1ccccn1)c1ccccn1
6. CC1(C)CCC[C@]2(C)[C@H]3[C@H](C#N)c4cc(O)c(O)cc4O[C@@]3(C)CC[C@@H]12
7. O=C(O)C1CC(O)CN1 (stereo not given)

Reply:
16.2 µM
2.8 µM
> 100 µM
> 100 µM
37.4 µM
> 10 µM
> 100 µM

---

system: UACC-62 melanoma; assay: NCI tumour cell line growth inhibition, 48 h; in the data active means GI50 below about 0.43 µM; inactive means the rest
The reply should name one outcome from TRUE = active, FALSE = inactive

Example results:
Compound	Group Label
O=C1C(=O)c2cccnc2-c2ncccc21	TRUE
CCCCCCCc1cc2c3c(nc4ccccc42)C(=O)c2cccnc2-c3n1	FALSE
Cc1cc(N2CCOCC2)cc2[nH]c(-c3c(NC[C@@H](O)c4cccc(Cl)c4)cc[nH]c3=O)nc12	FALSE
Cc1cnc(C(=O)Nc2nc3ccc(S(=O)(=O)Nc4ccc(C5(C(F)(F)F)CC5)cc4)cc3[nH]2)cn1	TRUE
COc1ccc(-c2ccc(-c3ccc(C(=N)N)o3)o2)cc1	FALSE

Query: Lab log entry: C=C1CC2(OC1=O)C(=O)Nc1ccccc12 (stereo unspecified) — outcome as called in the assay?
Reply: FALSE

Query: Test call, this compound: NCCCNCCCCNC(=O)C(O)NC(=O)CCCCCCN=C(N)N (stereo unspecified)
Reply: FALSE

---

Could you please report measured TGI for the items listed next?
system: HCT-116 colon; experiment: NCI tumour cell line growth inhibition, 48 h
Where a SMILES comes first, the peptide text is derived from it. [ ]: non-standard residue; d: D form. The star is where a group is joined. Phe(4-NO2) = N[CH](Cc1ccc([N+](=O)[O-])cc1)C(=O)O; Boc = CC(C)(C)OC(=O)*

Molecule	TGI
O=C(NNC(=S)NC1CCCCC1)c1csc(NC(=S)NC2CCCCC2)n1	16.5 µM
CC1=C(C(=O)Nc2ccccc2)C2(CCCCC2)C(C#N)=C(SCC(=O)Nc2ccc(Br)cc2)N1	8.28 µM
COc1cc(C(O)(CC#N)c2cc3c(cc2Br)OCO3)cc(OC)c1OC (stereo unspecified)	> 100 µM
CCOC(=O)CCC(NC(=O)c1ccc(OCc2ccc3nc(-c4ccccc4)c(Cl)nc3c2)cc1)C(=O)OCC (stereo unspecified)	> 31.6 µM
C=C(Br)CNC(=O)CCC(=O)NCC(=C)Br	> 100 µM
Cc1ccccc1S(=O)(=O)Nn1cnc2ccc(S(=O)(=O)Nc3ccc(Cl)cc3)cc2c1=O	> 100 µM
CN(C)c1ccc(/C=C/c2cc[n+](C)c(/C=C/c3ccc(N(C)C)cc3)c2)cc1	1.24 µM
CC(C)(C)c1cc(O)ccc1O	> 72.9 µM

Quick batch: TGI for everything below.
1. CN1C(=O)C2C(C1=O)C1(O)c3ccccc3C2(N)c2ccccc21 (stereo unspecified)
2. O=C(O)CN1C(=O)C(Cc2ccc(O)cc2)N=C(c2cccc(O)c2)c2ccccc21 (stereo unspecified)
3. Cc1ccc(S(=O)(=O)NNCNC(=O)c2ccccc2)cc1
4. C[C@@H]1CC[C@@H]2[C@@H](C1)O[C@@H]([C@H](C)OCc1ccccc1)SC2(C)C
5. CCCCCCCc1cc2c3c(nc4ccccc42)C(=O)c2cccnc2-c3n1
6. CCN(CC)c1ccc(N=Nc2ccc(-c3nc4ccc[n+](C)c4o3)cc2)cc1
7. CCCSS[C@H]1NC(=O)[C@H]1NC(=O)COc1ccccc1

Reply:
["> 100 µM", "> 100 µM", "> 100 µM", "29.3 µM", "3.35 µM", "16.3 µM", "22 µM"]

Below are some molecules; for each one, tell me its TGI.
1. CC(C(O)c1ccccc1)C(O)(C(F)(F)F)C(F)(F)F (stereo unspecified)
2. CC(=O)C1=C(O)CC2CC3c4[nH]c5ccccc5c4CCN3CC2C1 (stereo unspecified)
3. CC(=O)OCC1OC(n2c(-c3ccc(C)cc3)cc(-c3ccccc3)c(C#N)c2=S)C(OC(C)=O)C(OC(C)=O)C1OC(C)=O (stereo unspecified)
4. Oc1ccc(-c2nc3ccc(Cl)cc3s2)cc1
5. COc1ccc(-c2cc3[nH]nc(N)c3c(=O)o2)cc1

Reply:
1. > 100 µM
2. > 100 µM
3. > 100 µM
4. 29.5 µM
5. > 100 µM

Quick request: TGI for each listed item, please.
1. Cc1cc(C)cc(NC(N)=S)c1
2. C/C(=N\NC(=S)NCCCNC(=S)N/N=C(\C)c1ccccn1)c1ccccn1
3. N#C/C(=C\c1ccc(Br)cc1)n1nnc2ccc(F)cc21
4. COCN1C(=O)[C@@H]2CCCN2C(=O)c2cc(N)ccc21
5. CC(=O)OCC1OC(n2c(-c3ccc(C)cc3)cc(-c3ccccc3)c(C#N)c2=O)C(OC(C)=O)C(OC(C)=O)C1OC(C)=O (stereo unspecified)
6. CNC(=O)CCC(NC(=O)OC(C)(C)C)C(=O)NC(Cc1ccc([N+](=O)[O-])cc1)C(=O)NCC(=O)NC (stereo unspecified) (Boc-Glu(NHMe)-[Phe(4-NO2)]-Gly-NHMe; configuration not given here)
7. Cc1cccc(NC(=O)c2cccc([N+](=O)[O-])c2O)c1C
8. Nc1nc2c3nc(Nc4ccccc4)sc3nc(=O)n2c2sc(Nc3ccccc3)nc12

Reply:
1. > 100 µM
2. 24 µM
3. 2.35 µM
4. > 100 µM
5. > 100 µM
6. > 100 µM
7. > 100 µM
8. > 100 µM

// each molecule listed below needs its TGI
1. O=C(/C=C/c1ccc(C(F)(F)F)cc1)c1ccc(Nc2nc(NCCO)nc(Nc3ccc(Cl)cc3)n2)cc1
2. Cc1cnc(C(=O)Nc2nc3ccc(S(=O)(=O)Nc4ccc(C5(C(F)(F)F)CC5)cc4)cc3[nH]2)cn1
3. Nn1c(Cc2ccc([N+](=O)[O-])cc2)n[nH]c1=O
4. COc1cc2c(cc1OC)C13CCN4CC5CCOC6CC(=O)N2C1C6C5CC43 (stereo unspecified)
5. N#CC1CC2(CCN1C(=O)c1ccccc1)OCCO2 (stereo unspecified)
6. CCCCCCCCCCNC(=O)CCC(NC(=O)c1ccc(N(C)Cc2cnc3nc(N)nc(N)c3n2)cc1)C(=O)NCCCCCCCCCC (stereo unspecified)
7. COI1NC(=O)c2ccccc21

Reply:
["2.83 µM", "10.5 µM", "> 100 µM", "> 100 µM", "> 100 µM", "14 µM", "> 100 µM"]

Could you tell me TGI for each of these molecules? They are listed below.
1. O=C1c2ccccc2C(=O)N1CC(O)COc1cccc2ccccc12 (stereo unspecified)
2. CCOC(=O)C(SCCO)C(C(=O)OCC)n1ccc(=O)[nH]c1=O (stereo unspecified)
3. COC(=O)C1(C)C=CC(=O)C2(C)C1C(O)C1OC3CC(c4ccoc4)C(C)=C3C1(C)C2CC(=O)O (stereo unspecified)
4. O=C1c2ccccc2S(=O)(=O)c2cc(-c3nn[nH]n3)ccc21

Reply:
1: > 100 µM; 2: > 57.4 µM; 3: > 100 µM; 4: > 100 µM

Items follow; give TGI for each.
1. C[N+]1=C(/C=C\C=C\c2ccccc2)C(C)(C)c2ccccc21
2. CC(C)/C(Cl)=N\OC(=O)Nc1cccc(Cl)c1

Reply:
1: 13.2 µM; 2: 36.2 µM
